For each of the molecules below, state its PI3Kδ IH % @ 1 uM.
Biological target: p110δ/p85α (Homo sapiens, UniProt O00329)
Sequence (O00329 whole entry): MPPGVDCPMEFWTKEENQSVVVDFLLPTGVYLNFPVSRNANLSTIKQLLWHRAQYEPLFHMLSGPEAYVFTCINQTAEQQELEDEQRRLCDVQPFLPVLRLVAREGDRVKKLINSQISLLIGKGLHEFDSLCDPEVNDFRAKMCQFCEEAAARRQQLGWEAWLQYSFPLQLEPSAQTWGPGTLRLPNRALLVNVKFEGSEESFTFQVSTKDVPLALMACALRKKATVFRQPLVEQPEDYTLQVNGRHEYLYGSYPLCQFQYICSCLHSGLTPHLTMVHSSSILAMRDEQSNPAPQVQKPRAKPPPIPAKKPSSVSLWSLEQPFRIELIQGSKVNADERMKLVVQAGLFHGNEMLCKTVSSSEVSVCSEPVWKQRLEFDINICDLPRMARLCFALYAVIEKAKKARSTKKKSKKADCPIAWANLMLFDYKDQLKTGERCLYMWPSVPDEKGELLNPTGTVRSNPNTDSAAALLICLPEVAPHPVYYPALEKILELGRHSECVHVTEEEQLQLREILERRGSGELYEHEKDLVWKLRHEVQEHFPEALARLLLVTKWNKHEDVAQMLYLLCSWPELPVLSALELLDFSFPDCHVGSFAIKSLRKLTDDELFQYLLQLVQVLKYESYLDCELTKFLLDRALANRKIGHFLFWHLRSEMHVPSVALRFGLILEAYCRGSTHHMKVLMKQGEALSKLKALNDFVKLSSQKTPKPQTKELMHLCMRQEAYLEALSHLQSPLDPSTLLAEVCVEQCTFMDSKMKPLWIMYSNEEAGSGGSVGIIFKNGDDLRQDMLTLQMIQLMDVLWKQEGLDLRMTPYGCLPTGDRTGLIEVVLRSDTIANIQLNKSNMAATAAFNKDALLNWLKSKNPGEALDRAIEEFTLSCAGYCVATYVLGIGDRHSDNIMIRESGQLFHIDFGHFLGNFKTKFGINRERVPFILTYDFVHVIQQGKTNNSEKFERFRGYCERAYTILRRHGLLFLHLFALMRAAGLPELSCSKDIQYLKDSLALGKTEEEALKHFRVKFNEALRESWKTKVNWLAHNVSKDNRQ
Sequence (P27986 whole entry partner): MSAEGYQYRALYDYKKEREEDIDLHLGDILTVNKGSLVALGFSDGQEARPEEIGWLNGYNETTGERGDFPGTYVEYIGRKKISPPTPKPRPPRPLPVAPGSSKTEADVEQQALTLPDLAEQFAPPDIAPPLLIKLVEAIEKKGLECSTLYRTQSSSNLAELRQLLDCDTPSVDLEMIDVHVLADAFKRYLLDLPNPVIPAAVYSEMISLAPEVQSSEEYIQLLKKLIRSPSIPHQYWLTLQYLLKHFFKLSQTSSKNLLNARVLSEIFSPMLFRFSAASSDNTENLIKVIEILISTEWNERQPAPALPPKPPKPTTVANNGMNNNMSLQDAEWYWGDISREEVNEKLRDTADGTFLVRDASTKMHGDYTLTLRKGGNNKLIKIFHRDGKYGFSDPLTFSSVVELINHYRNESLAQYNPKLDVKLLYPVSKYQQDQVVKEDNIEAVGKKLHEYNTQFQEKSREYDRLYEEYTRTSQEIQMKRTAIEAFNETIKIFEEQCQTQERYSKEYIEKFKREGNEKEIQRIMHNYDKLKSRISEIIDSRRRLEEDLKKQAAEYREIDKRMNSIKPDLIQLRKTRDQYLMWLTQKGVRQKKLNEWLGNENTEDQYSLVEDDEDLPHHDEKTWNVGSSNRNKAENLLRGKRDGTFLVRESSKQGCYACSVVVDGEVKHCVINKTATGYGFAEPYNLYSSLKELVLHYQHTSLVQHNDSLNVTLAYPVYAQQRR
Assay: Transcreener KINASE Assay, kinase inhibition of p110δ/p85α
Assay type: biochemical
Conditions: 1 uM test compound
Answers are plain numbers, in %.

Some solved entries appear below for comparison.
CC(=O)c1c[nH]c2ncnc(N3CCC[C@H]3c3nn4ccc(Cl)c4c(=O)n3-c3ccc(F)cc3)c12 [Compound 208]: 97.4
O=c1c2c(Cl)ccn2nc([C@@H]2CCN2c2nc(N3CCOCC3)nc3[nH]cnc23)n1-c1ccccc1 [Compound 114]: 93.7
CC(=O)c1cnc(N)nc1N1CC(=O)C[C@H]1c1nn2ccc(F)c2c(=O)n1-c1ccccc1 [Compound 446]: 85.8
N#Cc1c[nH]c2ncnc(N3CCC[C@H]3c3nn4ccc(Cl)c4c(=O)n3Cc3ncccn3)c12 [Compound 155]: 96.4
N#Cc1cnc(N)nc1N1CC[C@H]1c1nn2ccc(Cl)c2c(=O)n1-c1ccccc1 [Compound 212]: 95.3
N#Cc1c[nH]c2ncnc(N3CCC[C@H]3c3nn4ccc(Cl)c4c(=O)n3CC3CCCCC3)c12 [Compound 258]: 94.7

Give me PI3Kδ IH % @ 1 uM for each of these molecules, listed below.
1. CC(Nc1ncnc2[nH]cc(C#N)c12)c1cn2cccc2c(=O)n1-c1ccccc1 (stereo not drawn) [Compound 82]
2. N#Cc1cc2nc(N)nc(N3CCC[C@H]3c3nn4ccc(Cl)c4c(=O)n3-c3ccccc3)n2n1 [Compound 320]

Response:
98.7
29.1

Give PI3Kδ IH % @ 1 uM for each of the items listed below.
1. CC(Nc1ncnc2[nH]cc(C#N)c12)c1cn2ccc(Cl)c2c(=O)n1-c1ccccc1 (stereo not drawn) [Compound 88]
2. Nc1nc(N2CCC[C@H]2c2nn3ccc(C4CC4)c3c(=O)n2-c2ccccc2)c2nc[nH]c2n1 [Compound 53]
3. CN(C)C(=O)c1cnc(N)nc1N1CC[C@H]1c1nn2ccc(Cl)c2c(=O)n1-c1ccccc1 [Compound 281]
4. N#C[C@H]1C[C@@H](c2nn3ccc(Cl)c3c(=O)n2-c2ccc(F)cc2)N(c2ncnc3[nH]cnc23)C1 [Compound 361]
5. O=c1c2c(Cl)ccn2nc([C@@H]2CCCN2c2ncnc3[nH]cnc23)n1Cc1ncccn1 [Compound 156]
6. NC(=O)c1ccn2nc([C@@H]3CCCN3c3ncnc4[nH]cnc34)n(-c3ccccc3)c(=O)c12 [Compound 139]
7. O=c1c2c(C3CC3)ccn2nc([C@@H]2CCCN2c2ncnc3[nH]cnc23)n1-c1ccccc1 [Compound 51]

Response:
1. 93.2
2. 68.8
3. 15.7
4. 97.9
5. 83.4
6. 64.8
7. 80.1

Field: PI3Kδ IH % @ 1 uM. Fill in for each record below.
1. C#Cc1cnc(N)nc1N1CC[C@H]1c1nn2ccc(Cl)c2c(=O)n1-c1ccccc1 [Compound 224]
2. Nc1nc2c(c(N3CC[C@H]3c3nn4ccc(Cl)c4c(=O)n3-c3ccccc3)n1)C(=O)CCN2 [Compound 241]
3. CC(=O)c1cnc(N)nc1N1CC[C@@H]1c1nn2ccc(Cl)c2c(=O)n1-c1ccccc1 [Compound 470]
4. C[S@+]([O-])c1c[nH]c2ncnc(N3CCC[C@H]3c3nn4ccc(Cl)c4c(=O)n3-c3ccccc3)c12 [Compound 382]

Response:
85.9
95.3
27.8
99.0
